Cited source: ChEMBL document CHEMBL4513216

experiment: Toxicity liver stage against HepG2, at 10uM; format: cell-based; set-up: test concentration 10 uM, cell line HepG2-A16-CD81EGFP; conditions: human, HepG2-A16-CD81EGFP cells; read-out: INHIBITION
Measure: cytotoxicity at 10 µM

compound=CC(C)n1c(=O)c2ccccc2n(CCN(C)C)c1=O test_result=0.616%
compound=Cc1ncc(S(=O)(=O)Nc2ccnn2C2CCCCC2)[nH]1 test_result=-6.82%
compound="COc1cc(C)cc(C(C(=O)O)N(C)Cc2ccncc2C)c1OC (stereo unspecified)" test_result=0.231%
compound=COc1cccc2[nH]cc(CCNC(=O)N3CCC[C@H]3CO)c12 test_result=-12.6%
compound="COc1ccccc1CN(C)C(=O)C[S+]([O-])Cc1cc(C)on1 (stereo unspecified)" test_result=0.788%

Look at this compound and give its reported cytotoxicity at 10 µM. `Cn1cc(C(=O)NCc2ccc(OC3CCCCC3)nc2)ccc1=O` 28.8%

Can you check Cc1nnc(N2CCCC3(CN(Cc4ccncc4)CCO3)C2)o1 (stereo unspecified) next? -13.5%

Same question, `O=c1c(-c2ccnc(N3CCCC[C@@H]3CO)n2)cnc2sccn12` this time -10.3%

Further, for Cc1nn(C)c(N2CCOCC2)c1CNC1CCc2ccccc21 (stereo unspecified) ? -0.704%

Follow-up item: `O=C([C@H]1C[C@H]2CN(c3ncc(F)cn3)C[C@@H]1O2)N1CCCC1` -115%

Another compound to check: `Cc1c(I)cccc1C(=O)NCc1ncc[nH]1` 17.3%

And `O=C(COc1cccnc1)NCc1nncn1C1CCCCC1` ? 3.46%

# iterate: O=S1(=O)CCC(N(Cc2nc3ccccc3o2)Cc2cccs2)C1 (stereo unspecified) -3.08%

Quick one: `CCOC(=O)N1CCN(CC(=O)Nc2nnc(CC)s2)CC1` -8.94%

Now consider `Cc1nn(C)cc1-c1cc(C(=O)NCC(C)(C)c2ccccc2F)n[nH]1` . 6.82%

Query CC(=O)N1CCCC(Cc2cncc(Br)c2)C1 (stereo unspecified) next -9.02%

`O=C(NC1CCCCC1)c1cc(Br)cnc1N1CCCCC1` ? 2.22%

Note, next up: O=C(C1CCS(=O)(=O)C1)N1CCN(c2cnccn2)CC1 (stereo unspecified) -6.66%

Also check `Cc1nnc2n1CCN(c1nc3ccccc3o1)C2` 3.51%

Please answer likewise for `Cc1nc(-c2ccc(CC(=O)N3CCN(C(=O)C4CC4)CC3)cc2)cs1` 9.86%

Entry `COc1ccc(NCc2nc(=O)n(CCC(C)C)[nH]2)cc1` please -2.9%

What do you have for CC(C#N)CSc1ccccc1NCC(=O)NCc1ccccc1 (stereo unspecified) ? -7.89%

Ok, now `COc1ccc2c(c1)OC1(CCN(Cc3ccc(F)cc3)CC1)CC2=O` 9.09%

Note, next up: `C1CCC(N2CCCN(c3nc(C4CC4)no3)CC2)C1` -9.13%

Also need Cc1ncc(CN2Cc3ccccc3OC3(CCC(CO)CC3)C2)cn1 (stereo unspecified) , thanks. 0.179%
